Measured pKi of individual entries
Molecular target: full-length recombinant rat vitamin D receptor (Rattus norvegicus, UniProt P13053)
Construct: Full-length recombinant rat receptor was expressed in E. coli BL21 (DE3) Codon Plus RIL cells; histidine tag (C)
Sequence (P13053 whole entry): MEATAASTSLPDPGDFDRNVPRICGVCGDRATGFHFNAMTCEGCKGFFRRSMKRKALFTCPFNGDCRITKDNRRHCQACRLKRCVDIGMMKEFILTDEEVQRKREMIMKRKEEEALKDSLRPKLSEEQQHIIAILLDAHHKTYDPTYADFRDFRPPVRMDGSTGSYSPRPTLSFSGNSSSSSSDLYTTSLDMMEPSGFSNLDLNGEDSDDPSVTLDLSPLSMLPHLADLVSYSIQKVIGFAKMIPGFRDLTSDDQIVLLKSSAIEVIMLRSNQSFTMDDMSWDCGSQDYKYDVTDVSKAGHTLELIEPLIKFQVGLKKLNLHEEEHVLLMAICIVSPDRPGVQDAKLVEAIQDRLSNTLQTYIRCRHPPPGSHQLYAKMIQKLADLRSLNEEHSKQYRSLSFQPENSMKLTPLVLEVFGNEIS
Test: Vitamin D receptor binding, competition with [3H]-1,25(OH)2D3
Details: full-length recombinant rat VDR; 1 nM radioligand
# pKi is unitless: minus log10 of the molar concentration; print number only

C=C1CC/C(=C/C=C2\CCC[C@]3(C)[C@@H]([C@H](C)CCCC(C)(C)O)CC[C@@H]23)C(=C)[C@H]1O: 9.40

Now consider the entry below.
So for C=C1CC/C(=C/C=C2\CCC[C@]3(C)[C@@H]([C@@H](C)CCCC(C)(C)O)CC[C@@H]23)C(=C)[C@H]1O , the logged pKi turned out to be 9.52
